- System: DU-145
- TEST: SRB colorimetric assay of cell growth and viability, DU-145
- Assay type: cell-based, human
- STATED_CONDITIONS: 48 hours exposure
- Procedure: The finality of this assay is to interrupt the growth of a “in vitro” tumor cell culture by means a continued exhibition of the cells to the sample to be testing. […] Cells are seeded in 96 well microtiter plates, at 5×10^3 cells per well in aliquots of 195 μL medium, and they are allowed to attach to the plate surface by growing in drug free medium for 18 hours. […] Optical densities are read on a automated spectrophotometric plate reader at a single wavelength of 490 nm. […]
Each record here notes measured LC50 (concentration causing 50% net cell kill).
MEASUREMENT_LABEL: LC50 (concentration causing 50% net cell kill)

{"COMPOUND": "C/C=C1\\NC(=O)[C@H](Cc2ccccc2)NC(=O)[C@@H](C(C)C)NC(=O)[C@@H]([C@@H](C)CC)NC(=O)[C@H](NC(=O)[C@H](NC(=O)[C@H](CCCN)NC(=O)[C@H]2CCCN2C(=O)[C@H](NC(=O)[C@@H](NC(=O)[C@@H](NC(=O)[C@@H](CC2CCCCC2)NC(=O)CCCC(C)C)[C@@H](C)O)C(C)C)C(C)C)[C@@H](C)CC)[C@@H](C)OC(=O)[C@H](C(C)C)NC1=O [Compound 8, [D-Cha^13]-KF]", "REPORTED_VALUE": "4.26 µM"}
{"COMPOUND": "C/C=C1\\NC(=O)[C@H](Cc2ccccc2)NC(=O)[C@@H](C(C)C)NC(=O)[C@@H]([C@@H](C)CC)NC(=O)[C@H](NC(=O)[C@H](NC(=O)[C@H](CCCN)NC(=O)[C@H]2CCCN2C(=O)[C@H](NC(=O)[C@@H](NC(=O)[C@@H](NC(=O)[C@@H](C)NC(=O)CCCC(C)C)[C@@H](C)O)C(C)C)C(C)C)[C@@H](C)CC)[C@@H](C)OC(=O)[C@H](C(C)C)NC1=O [Compound 34, [D-Ala^13]-KF]", "REPORTED_VALUE": "4.79 µM"}

---

- Tested on: SK-BR-3
- TEST: SRB colorimetric assay of cell growth and viability, SK-BR-3
- Format: cell-based, human
- STATED_CONDITIONS: SK-BR-3; 48 hours exposure
Where a SMILES comes first, the peptide text is derived from it. Bridges are numbered along the chain shown (N, C = ends). [ ]: non-standard residue; d: D form. The star is where a group is joined. d(aIle) = CC[C@H](C)[C@@H](N)C(=O)O; d(aThr) = C[C@@H](O)[C@@H](N)C(=O)O; Hexanoyl(5-Me) = CC(C)CCCC(=O)*; Phg = N[C@H](C(=O)O)c1ccccc1; Orn = NCCC[C@H](N)C(=O)O; Dhb = C/C=C(\N)C(=O)O
Each record here notes measured TGI SK-BR-3.

{"MOLECULE": "C/C=C1\\NC(=O)[C@H](Cc2ccccc2)NC(=O)[C@@H](C(C)C)NC(=O)[C@@H]([C@@H](C)CC)NC(=O)[C@H](NC(=O)[C@H](NC(=O)[C@H](CCCN)NC(=O)[C@H]2CCCN2C(=O)[C@H](NC(=O)[C@@H](NC(=O)[C@@H](NC(=O)[C@@H](CCCN)NC(=O)CCCC(C)C)[C@@H](C)O)C(C)C)C(C)C)[C@@H](C)CC)[C@@H](C)OC(=O)[C@H](C(C)C)NC1=O [Compound 118, [D-Orn^13]-KF]", "SYSTEM": "SK-BR-3", "TGI SK-BR-3 (Molar)": "1.94E−06"}
{"MOLECULE": "C/C=C1\\NC(=O)[C@H](Cc2ccc(F)c(F)c2)NC(=O)[C@@H](C(C)C)NC(=O)[C@@H]([C@@H](C)CC)NC(=O)[C@H](NC(=O)[C@H](NC(=O)[C@H](CCCN)NC(=O)[C@H]2CCCN2C(=O)[C@H](NC(=O)[C@@H](NC(=O)[C@@H](NC(=O)[C@H](NC(=O)CCCC(C)C)C(C)C)[C@@H](C)O)C(C)C)C(C)C)[C@@H](C)CC)[C@@H](C)OC(=O)[C@H](C(C)C)NC1=O [Compound 84, [Phe(3,4-F2)^3]-KF]", "SYSTEM": "SK-BR-3", "TGI SK-BR-3 (Molar)": "5.34E−08"}
{"MOLECULE": "C/C=C1\\NC(=O)[C@H](Cc2ccccc2)NC(=O)[C@@H](C(C)C)NC(=O)[C@@H]([C@@H](C)CC)NC(=O)[C@H](NC(=O)[C@H](NC(=O)[C@H](CCCN)NC(=O)[C@H]2CCCN2C(=O)[C@H](NC(=O)[C@@H](NC(=O)[C@H](C)NC(=O)[C@H](NC(=O)CCCC(C)C)C(C)C)C(C)C)C(C)C)[C@@H](C)CC)[C@@H](C)OC(=O)[C@H](C(C)C)NC1=O [Compound 112, [Ala^12]-KF] ({Hexanoyl(5-Me)}-[dV]AV[dV][dP][Orn][d(aIle)][d(aThr)][d(aIle)][dV]F[Dhb]V; ester 8-C)", "SYSTEM": "SK-BR-3", "TGI SK-BR-3 (Molar)": "5.84E−06"}
{"MOLECULE": "C/C=C1\\NC(=O)[C@H](Cc2ccccc2)NC(=O)[C@@H](C(C)C)NC(=O)[C@@H]([C@@H](C)CC)NC(=O)[C@H](NC(=O)[C@H](NC(=O)[C@H](CCCN)NC(=O)[C@H]2CCCN2C(=O)[C@H](NC(=O)[C@@H](NC(=O)CNC(=O)[C@H](NC(=O)CCCC(C)C)C(C)C)C(C)C)C(C)C)[C@@H](C)CC)[C@@H](C)OC(=O)[C@H](C(C)C)NC1=O [Compound 111, [Gly^12]-KF] ({Hexanoyl(5-Me)}-[dV]GV[dV][dP][Orn][d(aIle)][d(aThr)][d(aIle)][dV]F[Dhb]V; ester 8-C)", "SYSTEM": "SK-BR-3", "TGI SK-BR-3 (Molar)": "1.54E−06"}
{"MOLECULE": "C/C=C1\\NC(=O)[C@H](c2ccccc2)NC(=O)[C@@H](C(C)C)NC(=O)[C@@H]([C@@H](C)CC)NC(=O)[C@H](NC(=O)[C@H](NC(=O)[C@H](CCCN)NC(=O)[C@H]2CCCN2C(=O)[C@H](NC(=O)[C@@H](NC(=O)[C@@H](NC(=O)[C@H](NC(=O)CCCC(C)C)C(C)C)[C@@H](C)O)C(C)C)C(C)C)[C@@H](C)CC)[C@@H](C)OC(=O)[C@H](C(C)C)NC1=O [Compound 87, [Phg^3]-KF] ({Hexanoyl(5-Me)}-[dV]TV[dV][dP][Orn][d(aIle)][d(aThr)][d(aIle)][dV][Phg][Dhb]V; ester 8-C)", "SYSTEM": "SK-BR-3", "TGI SK-BR-3 (Molar)": "1.19E−06"}
